These measurements were taken from patent US8129366B2.

Molecular target: hα4 and β1 integrins (Homo sapiens, UniProt P05556+P13612)
Sequence (P13612 34-1032): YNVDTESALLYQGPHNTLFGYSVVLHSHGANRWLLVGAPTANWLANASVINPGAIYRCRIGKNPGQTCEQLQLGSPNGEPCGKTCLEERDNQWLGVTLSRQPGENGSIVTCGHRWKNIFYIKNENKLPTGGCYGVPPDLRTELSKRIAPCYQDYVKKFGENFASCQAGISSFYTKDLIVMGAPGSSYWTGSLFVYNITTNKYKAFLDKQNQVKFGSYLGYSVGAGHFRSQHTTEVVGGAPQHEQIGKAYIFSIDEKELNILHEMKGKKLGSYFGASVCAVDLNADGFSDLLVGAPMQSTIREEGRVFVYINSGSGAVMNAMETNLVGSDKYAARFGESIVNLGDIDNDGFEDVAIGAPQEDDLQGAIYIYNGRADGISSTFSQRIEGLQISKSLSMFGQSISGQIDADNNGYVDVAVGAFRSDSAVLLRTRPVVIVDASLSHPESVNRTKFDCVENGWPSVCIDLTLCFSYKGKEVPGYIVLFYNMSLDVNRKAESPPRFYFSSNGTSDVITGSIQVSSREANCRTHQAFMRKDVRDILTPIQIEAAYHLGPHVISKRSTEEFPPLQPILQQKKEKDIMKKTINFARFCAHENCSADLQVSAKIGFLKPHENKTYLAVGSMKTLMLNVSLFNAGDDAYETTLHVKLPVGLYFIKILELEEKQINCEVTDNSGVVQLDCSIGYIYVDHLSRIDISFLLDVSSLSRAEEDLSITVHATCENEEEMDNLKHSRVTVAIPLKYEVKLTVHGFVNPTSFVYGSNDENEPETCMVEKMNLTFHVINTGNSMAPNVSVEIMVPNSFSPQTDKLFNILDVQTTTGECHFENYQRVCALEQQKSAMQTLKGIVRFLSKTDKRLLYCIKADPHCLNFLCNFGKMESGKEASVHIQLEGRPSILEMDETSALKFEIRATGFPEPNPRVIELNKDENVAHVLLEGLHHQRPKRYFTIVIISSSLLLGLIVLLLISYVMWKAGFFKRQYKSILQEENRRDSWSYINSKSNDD
Sequence (P05556 21-798): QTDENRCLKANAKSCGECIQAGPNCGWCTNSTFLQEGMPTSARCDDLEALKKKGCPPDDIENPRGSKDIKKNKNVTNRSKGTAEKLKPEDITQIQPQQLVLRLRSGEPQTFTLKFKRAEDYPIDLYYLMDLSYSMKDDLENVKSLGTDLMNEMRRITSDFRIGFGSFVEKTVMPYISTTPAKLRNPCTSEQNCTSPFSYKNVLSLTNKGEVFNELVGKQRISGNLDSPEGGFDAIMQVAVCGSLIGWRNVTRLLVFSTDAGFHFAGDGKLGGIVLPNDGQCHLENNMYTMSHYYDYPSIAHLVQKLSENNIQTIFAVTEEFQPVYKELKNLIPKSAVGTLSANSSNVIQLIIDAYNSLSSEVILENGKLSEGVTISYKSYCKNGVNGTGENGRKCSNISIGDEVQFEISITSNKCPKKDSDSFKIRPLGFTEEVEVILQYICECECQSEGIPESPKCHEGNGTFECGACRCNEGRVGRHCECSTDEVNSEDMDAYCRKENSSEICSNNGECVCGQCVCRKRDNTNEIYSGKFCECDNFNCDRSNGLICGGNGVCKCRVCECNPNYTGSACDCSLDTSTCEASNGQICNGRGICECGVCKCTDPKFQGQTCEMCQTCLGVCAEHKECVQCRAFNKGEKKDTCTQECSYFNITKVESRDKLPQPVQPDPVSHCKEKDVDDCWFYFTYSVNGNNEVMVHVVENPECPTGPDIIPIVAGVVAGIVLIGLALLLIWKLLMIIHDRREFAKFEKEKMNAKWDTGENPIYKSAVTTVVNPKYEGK
Assay: In vitro inhibition of binding between CHO cells expressing hα4 and β1 integrins and Eu3+-hVCAM-1 D1D7-IgG
Conditions: CHO cells expressing hα4 and β1 integrins; Eu3+-hVCAM-1 D1D7-IgG ligand; without HSA
MEASURED_QUANTITY: Ki (nM)

// solved cases for Ki follow
compound="Cn1cc(C(=O)Nc2cc(Cl)c(CC(=O)N3C[C@@H](N4CC5CC4CO5)C[C@H]3CO[C@H]3CC[C@H](C(=O)O)CC3)cc2Cl)c2ccccc21 (stereo partly shown)" measured_quantity=Ki recorded_value=6.5
compound=CS(=O)(=O)N1CCCN([C@H]2C[C@@H](CO[C@H]3CC[C@H](C(=O)O)CC3)N(C(=O)Cc3cc(Cl)c(NC(=O)c4coc5ccccc45)cc3F)C2)CC1 measured_quantity=Ki recorded_value=2.6
compound=CN(C)CC1CN([C@H]2C[C@@H](CO[C@H]3CC[C@H](C(=O)O)CC3)N(C(=O)Cc3cc(Cl)c(NC(=O)c4cn(C)c5ccccc45)cc3F)C2)C1 measured_quantity=Ki recorded_value=4.2
compound=CO[C@@H]1CN([C@H]2C[C@@H](CO[C@H]3CC[C@H](C(=O)O)CC3)N(C(=O)Cc3cc(Cl)c(NC(=O)c4cn(C)c5ccccc45)cc3Cl)C2)C[C@H]1OC measured_quantity=Ki recorded_value=5
compound=O=C(Nc1cc(Cl)c(CC(=O)N2C[C@@H](N3CCN(C4CCCCC4)CC3)C[C@H]2CO[C@H]2CC[C@H](C(=O)O)CC2)cc1Cl)c1coc2ccccc12 measured_quantity=Ki recorded_value=3.5

I = CCOC1CN([C@H]2C[C@@H](CO[C@H]3CC[C@H](C(=O)O)CC3)N(C(=O)Cc3cc(Cl)c(NC(=O)c4cn(C)c5ccccc45)cc3Cl)C2)C1
II = C[C@@H]1CN([C@H]2C[C@@H](CO[C@H]3CC[C@H](C(=O)O)CC3)N(C(=O)Cc3cc(Cl)c(NC(=O)c4coc5ccccc45)cc3F)C2)C[C@H](C)N1C
III = O=C(Nc1cc(F)c(CC(=O)N2C[C@@H](N3CC(CF)C3)C[C@H]2CO[C@H]2CC[C@H](C(=O)O)CC2)cc1Cl)c1coc2ccccc12
Put the entries in order of Ki, starting with the largest number. Use the labels to give the ranking in the order requested.
III, I, II
(III: 7.7 nM, I: 3.9 nM, II: 2.6 nM)
